Attribution: patent US11739074B2

Would you mind telling me the reported IC50 of each entry?
system: AsPC-1 (K-Ras G12D); test: CellTiter-Glo cell viability assay, AsPC-1; type: cell-based; settings: Homo sapiens, ASPC1, 120 h, read-out: AsPC-1 Cell Viability IC50, AsPC-1, K-Ras G12D, 5-day treatment

Query: Need IC50, item CCn1c(-c2cccnc2[C@H](C)OC)c2c3cc(ccc31)-c1cc(O)cc(c1)C[C@H](NC(=O)[C@H](C(C)C)N(C)C(=O)CN(C)C(=O)[C@H]1CN1CC1COC1)C(=O)N1CCC[C@H](N1)C(=O)OCC(C)(C)C2 (some centres unmarked)
Result: 0.1 to 1 µM

Query: Recorded IC50 for CCn1c(-c2cnccc2COC)c2c3cc(ccc31)-c1cc(O)cc(c1)C[C@H](NC(=O)[C@H](C(C)C)N(C)C(=O)CN(C)C(=O)[C@H]1CN1Cc1ccccc1)C(=O)N1CCC[C@H](N1)C(=O)OCC(C)(C)C2 (some centres unmarked) , please?
Result: 1 to 10 µM

Query: Could you tell me which IC50 is on file for CCn1c(-c2cnccc2COC)c2c3cc(ccc31)-c1cc(O)cc(c1)C[C@H](NC(=O)[C@H](C(C)C)N(C)C(=O)CN(C)C(=O)[C@@H]1N[C@@H]1c1ccccc1)C(=O)N1CCC[C@H](N1)C(=O)OCC(C)(C)C2 ?
Result: 1 to 10 µM

Query: Sample CCn1c(-c2cccnc2[C@H](C)OC)c2c3cc(ccc31)-c1cc(O)cc(c1)C[C@H](NC(=O)[C@H](C(C)C)N(C)C(=O)CN(C)C(=O)[C@H]1N[C@H]1C(C)C)C(=O)N1CCC[C@H](N1)C(=O)OCC(C)(C)C2 — what was its IC50?
Result: 0.1 to 1 µM

Query: Query (compound): CCn1c(-c2cccnc2[C@H](C)OC)c2c3cc(ccc31)-c1cc(O)cc(c1)C[C@H](NC(=O)[C@H](C(C)C)N(C)C(=O)CN(C)C(=O)[C@H]1CN1C(C)C)C(=O)N1CCC[C@H](N1)C(=O)OCC(C)(C)C2 (some centres unmarked) ; field requested: IC50
Result: 0.1 to 1 µM

Query: Which measured IC50 value corresponds to CCn1c(-c2cccnc2[C@H](C)OC)c2c3cc(ccc31)-c1cc(O)cc(c1)C[C@H](NC(=O)[C@H](C(C)C)N(C)C(=O)CN(C)C(=O)[C@H]1CN1CC1(C)COC1)C(=O)N1CCC[C@H](N1)C(=O)OCC(C)(C)C2 (some centres unmarked) ?
Result: 0.1 to 1 µM

Query: So what's the measured IC50 for this one? CCn1c(-c2cccnc2[C@H](C)OC)c2c3cc(ccc31)-c1cc(O)cc(c1)C[C@H](NC(=O)[C@H](C(C)C)N(C)C(=O)CN(C)C(=O)[C@H]1CN1CCCOC)C(=O)N1CCC[C@H](N1)C(=O)OCC(C)(C)C2 (some centres unmarked)
Result: 0.1 to 1 µM

Query: Name the recorded IC50 for CCn1c(-c2cccnc2[C@H](C)OC)c2c3cc(ccc31)-c1cc(O)cc(c1)C[C@H](NC(=O)[C@H](C(C)C)N(C)C(=O)CN(C)C(=O)[C@H]1CN1CCOC)C(=O)N1CCC[C@H](N1)C(=O)OCC(C)(C)C2 (some centres unmarked) .
Result: 0.1 to 1 µM
